Hey, just so you know, these numbers are from ChEMBL document CHEMBL3046377.

System: Candida albicans
TEST_DETAILS: Antimicrobial activity against Candida albicans at 100 ug after 24 hr by disk diffusion method
Assay type: functional
DETAILS: read-out: DIZ
Where zone of inhibition at 100 µg/disc equals or exceeds 10 mm, the correct label is 1; where it does not, the label is -1.

>>> class_label("O=C(O)c1cc(O)c(O)c(O)c1")
-1
>>> class_label("O=C(O)C[C@@H]1C(=O)O[C@H]2[C@@H]3OC(=O)c4cc(O)c(O)c(O)c4-c4c(cc(O)c(O)c4O)C(=O)OC[C@H]2O[C@@H](OC(=O)c2cc(O)c(O)c(O)c2)[C@@H]3OC(=O)c2cc(O)c(O)c3c2[C@H]1[C@H](O)C(=O)O3")
1
>>> class_label("O=C(O[C@@H]1O[C@@H]2COC(=O)c3cc(O)c(O)c(O)c3-c3c(cc(O)c(O)c3O)C(=O)O[C@H]([C@H]1O)[C@@H]2O)c1cc(O)c(O)c(O)c1")
1
>>> class_label("O=C(O[C@@H]1O[C@@H]2COC(=O)c3cc(O)c(O)c(O)c3-c3c(cc(Oc4c(C(=O)O)cc(O)c(O)c4O)c(O)c3O)C(=O)O[C@H]([C@H]1O)[C@@H]2O)c1cc(O)c(O)c(O)c1")
-1
>>> class_label("O=c1oc2c(O)c(O[C@@H]3OC[C@@H](O)[C@H](O)[C@H]3O)cc3c(=O)oc4c(O)c(O)cc1c4c23 [ELLAGIC ACID 4-O-XYLOPYRANOSIDE]")
-1

====

TEST_DETAILS: Inhibition of xanthine oxidase assessed as conversion of xanthine to uric acid incubated for 3 min
IC50 by entry:
OBSERVED_PROPERTY: IC50

>>> observed("O=C(O[C@@H]1O[C@@H]2COC(=O)c3cc(O)c(O)c(O)c3-c3c(cc(O)c(O)c3O)C(=O)O[C@H]([C@H]1O)[C@@H]2O)c1cc(O)c(O)c(O)c1 [CORILAGIN]")
"> 100 µM"
>>> observed("O=C(Oc1c(O)cc2c(c1O)-c1c(cc(O)c(O)c1O)C(=O)OC[C@H]1O[C@@H](OC(=O)c3cc(O)c(O)c(O)c3)[C@H](O)[C@@H](OC2=O)[C@@H]1O)c1cc(O)c(O)c(O)c1 [MALLOREPANIN]")
"> 100 µM"
>>> observed("O=C(O[C@@H]1O[C@@H]2COC(=O)c3cc(O)c(O)c(O)c3-c3c(cc(Oc4c(C(=O)O)cc(O)c(O)c4O)c(O)c3O)C(=O)O[C@H]([C@H]1O)[C@@H]2O)c1cc(O)c(O)c(O)c1 [MALLOTINIC ACID]")
"> 100 µM"
